Target: P2Y purinoceptor 2 (Homo sapiens)
Sequence (P41231 whole entry): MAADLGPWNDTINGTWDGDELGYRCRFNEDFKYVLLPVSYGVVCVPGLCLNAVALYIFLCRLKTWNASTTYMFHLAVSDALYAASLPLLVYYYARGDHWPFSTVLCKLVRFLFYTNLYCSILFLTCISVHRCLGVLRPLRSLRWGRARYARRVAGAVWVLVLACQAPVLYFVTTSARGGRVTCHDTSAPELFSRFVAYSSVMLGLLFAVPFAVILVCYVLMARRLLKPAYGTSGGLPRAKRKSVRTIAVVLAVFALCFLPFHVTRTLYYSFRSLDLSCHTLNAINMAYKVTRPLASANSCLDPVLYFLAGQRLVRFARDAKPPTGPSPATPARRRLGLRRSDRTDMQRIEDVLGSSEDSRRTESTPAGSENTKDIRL
Experiment: Agonist activity at P2Y2 receptor expressed in human 1321 cells at 100 uM by calcium mobilization assay
Assay type: functional, cell-based
Active and inactive are the calls of the source. No cut-off for these calls is given here.

{"columns": ["compound", "Activity"],
 "data": [
  ["CCCCCCNC(=O)Nc1ncnc2c1ncn2[C@@H]1O[C@H](COP(=O)(O)O)C2OC(C#Cc3ccccc3)OC21 (single isomer, unassigned)", "inactive"],
  ["Nc1ccn([C@@H]2O[C@H](COP(=O)(O)OP(=O)(O)OP(=O)(O)OP(=O)(O)OC[C@@H]3O[C@H](n4ccc(=O)[nH]c4=O)[C@H]4OC(Cc5ccccc5)O[C@H]43)[C@H]3OC(Cc4ccccc4)O[C@H]32)c(=O)n1 (stereo partly drawn)", "inactive"],
  ["CCCC1O[C@@H]2[C@@H](O1)[C@@H](COP(=O)(O)OP(=O)(O)OP(=O)(O)OP(=O)(O)OC[C@@H]1O[C@H](n3ccc(=O)[nH]c3=O)[C@H]3OC(CCC)O[C@H]31)O[C@H]2n1ccc(=O)[nH]c1=O (stereo partly drawn)", "> 5%"]
]}
